Hi there, I'd appreciate the recorded selectivity ratio for every entry that follows.
protocolText: Ratio of IC50 for cytotoxicity against human Ect1 cells assessed as reduction in cell viability by MTT assay to cytotoxicity against human Ect1 cells assessed as reduction in cell viability in presence of 4 Gy irradiation by MTT assay
Assay type: cell-based
cond: read-out: Ratio IC50
Please respond with just the number, no unit label.

[ask] For Nc1nc(N)c2nc(-c3ccco3)c(-c3ccco3)nc2n1 , write its selectivity ratio.
[reply] 2

[ask] For Nc1nc(N)c2nc3c4cccnc4c4ncccc4c3nc2n1 , write its selectivity ratio.
[reply] 1.4

[ask] For Nc1nc(N)c2nc3c(nc2n1)-c1cccc2cccc-3c12 , write its selectivity ratio.
[reply] 2.2

[ask] For Nc1nc(N)c2nc(-c3cccs3)c(-c3cccs3)nc2n1 , write its selectivity ratio.
[reply] 2.1

---

protocolText: Safety index, ratio of IC50 for cytotoxicity against human Ect1 cells assessed as reduction in cell viability to IC50 for antiproliferative activity against human HeLa cells assessed as reduction in cell viability incubated for 12 hrs by MTT assay
Type: toxicity, cell-based
cond: Ect1 cells versus HeLa cells, read-out: Ratio IC50
outcomeMeasure: selectivity ratio at 12 h
Please respond with just the number, no unit label.

[ask] For Nc1nc(N)c2nc(-c3ccco3)c(-c3ccco3)nc2n1 , write its selectivity ratio at 12 h.
[reply] 1.6

[ask] For Nc1nc(N)c2nc3c(nc2n1)-c1cccc2cccc-3c12 , write its selectivity ratio at 12 h.
[reply] 3.3

[ask] For Nc1nc(N)c2nc(-c3cccs3)c(-c3cccs3)nc2n1 , write its selectivity ratio at 12 h.
[reply] 2.5

[ask] For Nc1nc(N)c2nc3c4cccnc4c4ncccc4c3nc2n1 , write its selectivity ratio at 12 h.
[reply] 2

---

protocolText: Safety index, ratio of IC50 for cytotoxicity against human Ect1/E6E7 cells assessed as reduction in cell viability in presence of 4 Gy irradiation by MTT assay to antiproliferative activity against human HeLa cells assessed as reduction in cell viability preincubated for 12 hrs followed by 4 Gy irradiation and measured after 60 hrs by MTT assay
Format: toxicity, cell-based
cond: Ect1/E6E7 cells versus HeLa cells, read-out: Ratio IC50
outcomeMeasure: selectivity ratio at 60 h
Please respond with just the number, no unit label.

[ask] For Nc1nc(N)c2nc(-c3ccco3)c(-c3ccco3)nc2n1 , write its selectivity ratio at 60 h.
[reply] 1.4

[ask] For Nc1nc(N)c2nc(-c3cccs3)c(-c3cccs3)nc2n1 , write its selectivity ratio at 60 h.
[reply] 2.3

[ask] For Nc1nc(N)c2nc3c(nc2n1)-c1cccc2cccc-3c12 , write its selectivity ratio at 60 h.
[reply] 4.8

[ask] For Nc1nc(N)c2nc3c4cccnc4c4ncccc4c3nc2n1 , write its selectivity ratio at 60 h.
[reply] 2.2

---

Tested on: HeLa
protocolText: Antiproliferative activity against human HeLa cells assessed as reduction in cell viability preincubated for 12 hrs followed by 4 Gy irradiation and measured after 60 hrs by MTT assay
Format: functional, cell-based
cond: light or radiation study
outcomeMeasure: pIC50
// scale note: pIC50 = -log10(conc_M); give the bare number

[ask] For Nc1nc(N)c2nc3c(nc2n1)-c1cccc2cccc-3c12 , write its pIC50.
[reply] 6.19

[ask] For Nc1nc(N)c2nc(-c3cccs3)c(-c3cccs3)nc2n1 , write its pIC50.
[reply] 5.64

[ask] For Nc1nc(N)c2nc3c4cccnc4c4ncccc4c3nc2n1 , write its pIC50.
[reply] 5.20

[ask] For CN(Cc1cnc2nc(N)nc(N)c2n1)c1ccc(C(=O)N[C@@H](CCC(=O)O)C(=O)O)cc1 [METHOTREXATE] , write its pIC50.
[reply] 6.09

[ask] For Nc1nc(N)c2nc(-c3ccco3)c(-c3ccco3)nc2n1 , write its pIC50.
[reply] 4.84

[ask] For Nc1nc(N)c2nc(-c3ccccc3)c(-c3ccccc3)nc2n1 , write its pIC50.
[reply] 4.83

// provenance: ChEMBL document CHEMBL4622964
